# systemTested: NR2B-subtype NMDA receptors (Rattus norvegicus (Rat), UniProt P35439+Q00960)
# Sequence (Q00960 27-1482, other chains not shown): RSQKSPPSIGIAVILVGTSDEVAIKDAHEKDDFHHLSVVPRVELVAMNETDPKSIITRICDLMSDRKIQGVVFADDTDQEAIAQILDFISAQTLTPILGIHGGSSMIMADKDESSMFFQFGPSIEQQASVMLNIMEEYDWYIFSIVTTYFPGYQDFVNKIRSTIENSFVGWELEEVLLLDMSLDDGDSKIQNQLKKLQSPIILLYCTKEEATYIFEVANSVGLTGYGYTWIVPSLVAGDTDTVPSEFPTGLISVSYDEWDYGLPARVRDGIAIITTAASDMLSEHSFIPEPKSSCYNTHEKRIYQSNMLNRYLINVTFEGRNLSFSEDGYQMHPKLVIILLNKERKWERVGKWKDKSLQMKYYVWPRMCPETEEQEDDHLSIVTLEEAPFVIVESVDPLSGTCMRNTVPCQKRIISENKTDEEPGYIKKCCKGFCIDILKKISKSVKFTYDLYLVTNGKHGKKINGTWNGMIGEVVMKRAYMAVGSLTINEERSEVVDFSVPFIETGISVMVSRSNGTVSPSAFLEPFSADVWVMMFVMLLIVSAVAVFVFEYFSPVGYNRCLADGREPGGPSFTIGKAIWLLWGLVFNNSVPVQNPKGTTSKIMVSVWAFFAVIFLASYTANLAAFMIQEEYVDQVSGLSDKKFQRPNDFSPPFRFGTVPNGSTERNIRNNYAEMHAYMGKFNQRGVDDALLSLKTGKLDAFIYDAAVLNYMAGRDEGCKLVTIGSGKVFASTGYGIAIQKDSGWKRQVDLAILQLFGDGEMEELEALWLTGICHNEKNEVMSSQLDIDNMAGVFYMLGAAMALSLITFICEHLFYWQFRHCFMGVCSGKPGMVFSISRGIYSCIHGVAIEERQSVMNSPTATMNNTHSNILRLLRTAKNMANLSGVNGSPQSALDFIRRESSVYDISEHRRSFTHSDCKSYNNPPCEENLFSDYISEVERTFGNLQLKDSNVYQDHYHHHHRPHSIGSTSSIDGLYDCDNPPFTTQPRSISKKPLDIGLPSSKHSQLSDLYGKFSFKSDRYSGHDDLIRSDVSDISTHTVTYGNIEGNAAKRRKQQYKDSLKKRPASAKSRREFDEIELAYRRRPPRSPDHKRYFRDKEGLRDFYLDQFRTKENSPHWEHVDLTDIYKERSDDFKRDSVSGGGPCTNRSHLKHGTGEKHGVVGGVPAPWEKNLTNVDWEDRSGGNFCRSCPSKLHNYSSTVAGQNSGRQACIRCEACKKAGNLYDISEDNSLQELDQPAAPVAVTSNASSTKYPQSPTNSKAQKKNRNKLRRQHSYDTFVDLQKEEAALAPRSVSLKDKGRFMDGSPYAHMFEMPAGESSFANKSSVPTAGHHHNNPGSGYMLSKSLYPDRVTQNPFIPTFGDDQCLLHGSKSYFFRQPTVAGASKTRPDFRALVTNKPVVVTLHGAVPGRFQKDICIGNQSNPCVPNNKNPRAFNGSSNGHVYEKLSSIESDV
# methodDescription: Radioligand binding assay (3H Ro 25-6981 competition, rat forebrain membranes)
# conditionDetails: 3H Ro 25-6981 (4 nM), listed as 15, P-1, read-out: NR2B Binding Ki
reportedMetric: Ki (nM)
A number alone suffices; assume nM.

Problem: What Ki value was documented for this compound, O=C1C(N2CC[C@@H](c3ccc(O)cc3)[C@H](F)C2)CCON1Cc1ccc(F)cc1 (single isomer, unassigned) [Example 15, P-1] ?
Result: 393

====

# systemTested: NR2B-subtype NMDA receptors (Rattus norvegicus (Rat), UniProt P35439+Q00960)
# methodDescription: Radioligand binding assay (3H Ro 25-6981 competition, rat forebrain membranes)
# conditionDetails: 3H Ro 25-6981 (4 nM), listed as 5, P-1, read-out: NR2B Binding Ki
reportedMetric: Ki (µM)
A number alone suffices; assume µM.

Problem: What Ki value was documented for this compound, Cc1ccc(CN2OCCC(N3CC[C@@H](c4ccc(O)cc4)[C@H](F)C3)C2=O)cc1 (single isomer, unassigned) ?
Result: 0.144

====

# methodDescription: Drug levels in blood plasma and homogenized brain tissue by mass spectroscopy
# Format: in vivo
# conditionDetails: male, CD-1, plasma, iv; mouse, 3 mg/Kg i.v., occupancy study; read-out: Drug levels in the blood plasma
# Method: Ex Vivo Occupancy Assay. […] The filter plates were dried at 50° C. for 20 mins, incubated with microscint 20 for 10 minutes and read on TopCount (Perkin Elmer). […] Non-specific binding was determined using 10 μM Ro 25-6981 added to the wells containing membrane homogenates from vehicle-dosed animals. […] Drug levels were determined by mass spectroscopy in the usual manner. […]
reportedMetric: concentration at 15 min (nM)
A number alone suffices; assume nM.

Problem: What concentration at 15 min value was documented for this molecule, Cc1ccc(CN2OCC(N3CCN(c4ccc(O)cn4)CC3)C2=O)cc1 (single isomer, unassigned) ?
Result: 572

====

# systemTested: NR2B-subtype NMDA receptors (Rattus norvegicus (Rat), UniProt P35439+Q00960)
# methodDescription: Radioligand binding assay (3H Ro 25-6981 competition, rat forebrain membranes)
# conditionDetails: 3H Ro 25-6981 (4 nM), listed as 6, P-2, read-out: NR2B Binding Ki
reportedMetric: Ki (nM)
A number alone suffices; assume nM.

Problem: What Ki value was documented for this compound, Cc1ccc(CN2OCCC(N3CCC(c4ccc(O)cn4)CC3)C2=O)cc1 (single isomer, unassigned) [Example 6, P-2] ?
Result: 8.16

====

# methodDescription: Drug levels in blood plasma and homogenized brain tissue by mass spectroscopy
# Type: in vivo
# conditionDetails: plasma, iv; mouse, 1 mg/Kg i.v., at end of forced swim test
# Experimental: Ex Vivo Occupancy Assay. […] The filter plates were dried at 50° C. for 20 mins, incubated with microscint 20 for 10 minutes and read on TopCount (Perkin Elmer). […] Non-specific binding was determined using 10 μM Ro 25-6981 added to the wells containing membrane homogenates from vehicle-dosed animals. […] Drug levels were determined by mass spectroscopy in the usual manner. […]
reportedMetric: concentration at 21 min (nM)
A number alone suffices; assume nM.

Problem: What concentration at 21 min value was documented for this compound, Cc1ccc(CN2OCC(N3CCN(c4ccc(O)cn4)CC3)C2=O)cc1 (single isomer, unassigned) ?
Result: 207

This collection of values is drawn from patent US10501451B2.
